Entries and their Peak hCav1.2 Ca2+ current inhibition, Mean values follow.
# tested-target: hCav1.2 (Homo sapiens, UniProt Q13936)
# Sequence (Q13936 whole entry): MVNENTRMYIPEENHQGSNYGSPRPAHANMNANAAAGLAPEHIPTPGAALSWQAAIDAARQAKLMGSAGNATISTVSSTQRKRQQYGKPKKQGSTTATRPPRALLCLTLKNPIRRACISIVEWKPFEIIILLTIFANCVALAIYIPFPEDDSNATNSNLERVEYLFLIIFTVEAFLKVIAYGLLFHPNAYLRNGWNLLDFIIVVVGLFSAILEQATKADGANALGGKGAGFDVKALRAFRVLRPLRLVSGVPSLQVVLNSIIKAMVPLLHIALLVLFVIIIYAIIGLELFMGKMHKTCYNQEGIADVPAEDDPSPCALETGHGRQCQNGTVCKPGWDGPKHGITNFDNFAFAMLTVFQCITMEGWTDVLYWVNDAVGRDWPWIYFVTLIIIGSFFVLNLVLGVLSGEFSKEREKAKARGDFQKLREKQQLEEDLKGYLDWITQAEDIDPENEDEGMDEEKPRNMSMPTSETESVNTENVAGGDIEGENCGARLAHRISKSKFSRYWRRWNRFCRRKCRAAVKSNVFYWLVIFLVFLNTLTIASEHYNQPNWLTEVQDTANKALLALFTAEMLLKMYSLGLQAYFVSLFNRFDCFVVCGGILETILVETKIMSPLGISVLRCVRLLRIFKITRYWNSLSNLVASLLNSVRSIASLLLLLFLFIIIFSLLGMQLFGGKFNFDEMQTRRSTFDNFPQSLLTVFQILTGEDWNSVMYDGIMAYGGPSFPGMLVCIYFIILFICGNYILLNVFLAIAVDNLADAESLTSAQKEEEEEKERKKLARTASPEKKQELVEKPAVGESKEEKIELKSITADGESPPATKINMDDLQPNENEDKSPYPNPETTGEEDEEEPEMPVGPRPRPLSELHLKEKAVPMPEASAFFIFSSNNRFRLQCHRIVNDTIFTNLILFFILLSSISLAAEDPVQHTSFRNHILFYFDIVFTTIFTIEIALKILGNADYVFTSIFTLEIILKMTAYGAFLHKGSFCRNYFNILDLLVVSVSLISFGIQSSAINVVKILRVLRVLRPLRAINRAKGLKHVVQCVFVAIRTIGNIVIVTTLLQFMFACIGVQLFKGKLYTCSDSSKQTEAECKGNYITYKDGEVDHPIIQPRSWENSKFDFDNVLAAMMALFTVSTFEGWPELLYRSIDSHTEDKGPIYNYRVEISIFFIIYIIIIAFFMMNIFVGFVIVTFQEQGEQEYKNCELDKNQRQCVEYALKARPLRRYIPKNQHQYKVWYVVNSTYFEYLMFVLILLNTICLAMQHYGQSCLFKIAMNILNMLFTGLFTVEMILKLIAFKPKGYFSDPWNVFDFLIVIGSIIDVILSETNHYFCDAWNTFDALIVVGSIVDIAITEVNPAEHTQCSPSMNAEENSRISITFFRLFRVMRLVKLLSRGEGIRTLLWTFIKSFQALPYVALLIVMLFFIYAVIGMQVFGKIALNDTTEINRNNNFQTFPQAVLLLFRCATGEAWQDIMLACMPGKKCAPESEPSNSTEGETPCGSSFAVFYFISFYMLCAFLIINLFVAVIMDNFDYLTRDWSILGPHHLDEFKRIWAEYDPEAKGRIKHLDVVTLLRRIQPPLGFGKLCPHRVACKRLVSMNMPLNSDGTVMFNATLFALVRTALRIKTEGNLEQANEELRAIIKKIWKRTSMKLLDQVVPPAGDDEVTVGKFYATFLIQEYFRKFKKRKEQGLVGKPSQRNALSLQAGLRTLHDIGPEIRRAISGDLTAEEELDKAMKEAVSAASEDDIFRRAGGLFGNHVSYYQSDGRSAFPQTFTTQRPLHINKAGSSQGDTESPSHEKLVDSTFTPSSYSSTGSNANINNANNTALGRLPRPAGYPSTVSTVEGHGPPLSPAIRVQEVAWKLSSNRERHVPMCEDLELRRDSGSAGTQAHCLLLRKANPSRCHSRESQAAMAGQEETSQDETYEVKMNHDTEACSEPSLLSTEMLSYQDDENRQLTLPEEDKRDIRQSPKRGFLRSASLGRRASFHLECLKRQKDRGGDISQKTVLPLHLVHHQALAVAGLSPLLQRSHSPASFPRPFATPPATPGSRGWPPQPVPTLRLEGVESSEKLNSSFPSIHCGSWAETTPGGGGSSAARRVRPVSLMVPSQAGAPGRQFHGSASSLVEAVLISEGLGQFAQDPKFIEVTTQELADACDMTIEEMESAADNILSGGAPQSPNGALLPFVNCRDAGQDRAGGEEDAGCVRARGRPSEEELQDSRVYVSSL
# Sequence (Q08289 whole entry partner): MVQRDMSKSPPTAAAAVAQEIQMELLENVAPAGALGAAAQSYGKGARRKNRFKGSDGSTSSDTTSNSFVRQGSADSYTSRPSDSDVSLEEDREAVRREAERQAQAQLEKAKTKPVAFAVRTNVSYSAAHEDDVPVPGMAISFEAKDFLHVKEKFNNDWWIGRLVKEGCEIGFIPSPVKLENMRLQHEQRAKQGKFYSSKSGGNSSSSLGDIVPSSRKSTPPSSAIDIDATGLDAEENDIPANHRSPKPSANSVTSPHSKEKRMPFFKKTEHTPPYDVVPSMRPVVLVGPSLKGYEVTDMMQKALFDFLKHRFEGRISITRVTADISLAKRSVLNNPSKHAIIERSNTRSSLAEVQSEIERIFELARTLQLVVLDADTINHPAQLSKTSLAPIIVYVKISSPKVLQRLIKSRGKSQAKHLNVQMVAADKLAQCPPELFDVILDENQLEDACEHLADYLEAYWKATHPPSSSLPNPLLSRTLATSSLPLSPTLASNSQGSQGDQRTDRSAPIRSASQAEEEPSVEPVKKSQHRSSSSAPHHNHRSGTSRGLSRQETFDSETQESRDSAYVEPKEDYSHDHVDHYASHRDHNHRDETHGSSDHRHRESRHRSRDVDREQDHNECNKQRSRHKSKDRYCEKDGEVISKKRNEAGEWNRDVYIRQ
# Sequence (P54289 25-956 partner limits assumed): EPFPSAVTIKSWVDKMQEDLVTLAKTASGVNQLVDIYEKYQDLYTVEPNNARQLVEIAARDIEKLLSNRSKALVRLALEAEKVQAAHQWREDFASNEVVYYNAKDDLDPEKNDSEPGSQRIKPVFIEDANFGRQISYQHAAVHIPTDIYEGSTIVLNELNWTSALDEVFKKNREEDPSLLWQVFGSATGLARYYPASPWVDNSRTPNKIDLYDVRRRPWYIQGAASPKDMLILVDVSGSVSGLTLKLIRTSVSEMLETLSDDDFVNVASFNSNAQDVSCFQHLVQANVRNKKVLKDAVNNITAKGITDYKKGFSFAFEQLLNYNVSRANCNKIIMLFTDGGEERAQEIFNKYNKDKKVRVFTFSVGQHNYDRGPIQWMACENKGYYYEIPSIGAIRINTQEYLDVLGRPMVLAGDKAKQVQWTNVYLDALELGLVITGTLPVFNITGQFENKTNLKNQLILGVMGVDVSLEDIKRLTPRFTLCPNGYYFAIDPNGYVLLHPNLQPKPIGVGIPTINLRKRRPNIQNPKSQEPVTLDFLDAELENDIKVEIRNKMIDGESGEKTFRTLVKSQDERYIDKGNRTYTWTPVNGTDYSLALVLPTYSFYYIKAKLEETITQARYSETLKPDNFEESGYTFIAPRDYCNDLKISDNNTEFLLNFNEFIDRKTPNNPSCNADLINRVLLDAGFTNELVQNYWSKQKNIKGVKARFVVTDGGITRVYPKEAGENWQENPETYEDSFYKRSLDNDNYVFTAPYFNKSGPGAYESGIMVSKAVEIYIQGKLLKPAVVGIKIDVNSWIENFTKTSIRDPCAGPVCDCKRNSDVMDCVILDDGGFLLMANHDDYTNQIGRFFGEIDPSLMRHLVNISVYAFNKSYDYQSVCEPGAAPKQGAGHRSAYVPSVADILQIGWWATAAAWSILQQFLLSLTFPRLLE
# Sequence (P54289 957-1103 partner limits assumed): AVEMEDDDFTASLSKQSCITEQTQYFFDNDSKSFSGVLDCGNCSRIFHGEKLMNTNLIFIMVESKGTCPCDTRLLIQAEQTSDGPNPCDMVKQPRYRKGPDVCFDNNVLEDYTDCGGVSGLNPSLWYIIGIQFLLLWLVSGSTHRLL
# method-notes: Automated patch clamp, hCav1.2 current block
# cond: site s18_p1; 3.00E-07 mol/L
Write the quantity with the unit trailing the number.

As a guide, the following entries are already answered.
CC(C)COCC(CN(Cc1ccccc1)c1ccccc1)N1CCCC1 (stereo not shown) [bep, bepridil]
31.3%
CC(C)(C)c1ccc(C(O)CCCN2CCC(C(O)(c3ccccc3)c3ccccc3)CC2)cc1 (stereo not shown) [ter, terfenadine]
56.4%
Cc1nccn1CC1CCc2c(c3ccccc3n2C)C1=O (stereo not shown) [ond, ondansetron]
16.9%

Input: Could you tell me which Peak hCav1.2 Ca2+ current inhibition, Mean is on file for COc1cc(N)c(Cl)cc1C(=O)NC1CCN(CCCOc2ccc(F)cc2)CC1OC (stereo not drawn) [cis, cisapride] ?
Output: -16.5%

---

# tested-target: UniProtKB Q12809
# method-notes: Automated patch clamp, hERG current block (consensus step-ramp protocol)
# cond: human, hERG K+ current inhibition, Mean, site_platform s07_p5; 1.00E-06 mol/L
observed-property: inhibition at 1e-06 mol/L
Write the quantity with the unit trailing the number.

Input: Notebook entry, UniProtKB Q12809 assay: inhibition at 1e-06 mol/L of Cc1cccc(C)c1OCC(C)N (stereo not shown) [mex, mexiletine] = ?
Output: -10.5%

---

# tested-target: late hNav1.5 (Homo sapiens, UniProt Q14524)
# Construct: expressed in transfected cells; host or cells: HEK293 or CHO, depending on site
# method-notes: Automated patch clamp, late hNav1.5 current block (ATX-II activated)
# Assay type: cell-based
# cond: site_platform s06_p4
observed-property: nH, Hill slope, late hNav1.5 inhibition

As a guide, the following entries are already answered.
CC(C)COCC(CN(Cc1ccccc1)c1ccccc1)N1CCCC1 (stereo not shown) [bep, bepridil]
1.86
Cc1nccn1CC1CCc2c(c3ccccc3n2C)C1=O (stereo not shown) [ond, ondansetron]
1.28
C=C[C@H]1C[N@@]2CC[C@H]1C[C@@H]2[C@@H](O)c1ccnc2ccc(OC)cc12 [qui, quinidine]
0.91

Alright, here's another compound for you.
Input: Could you tell me which nH, Hill slope, late hNav1.5 inhibition is on file for Cc1cccc(C)c1OCC(C)N (stereo not shown) [mex, mexiletine] ?
Output: 0.97

---

# tested-target: hCav1.2 (Homo sapiens, UniProt Q13936)
# method-notes: Automated patch clamp, hCav1.2 current block
# cond: log IC50, half-maximal inhibitory concentration, site s14_p1
observed-property: IC50 (µM)
Please give a number only; it is taken to be in µM.

Cc1nccn1CC1CCc2c(c3ccccc3n2C)C1=O (stereo not drawn) [ond, ondansetron]
28.8
Cc1cccc(C)c1OCC(C)N (stereo not drawn) [mex, mexiletine]
234

Alright, here's another compound for you.
Input: Could you tell me which IC50 is on file for COc1ccccc1OCC(O)CN1CCN(CC(=O)Nc2c(C)cccc2C)CC1 (stereo not drawn) [ran, ranolazine] ?
Output: 245

---

# tested-target: hERG (Homo sapiens, UniProt Q12809)
# Sequence (Q12809 whole entry): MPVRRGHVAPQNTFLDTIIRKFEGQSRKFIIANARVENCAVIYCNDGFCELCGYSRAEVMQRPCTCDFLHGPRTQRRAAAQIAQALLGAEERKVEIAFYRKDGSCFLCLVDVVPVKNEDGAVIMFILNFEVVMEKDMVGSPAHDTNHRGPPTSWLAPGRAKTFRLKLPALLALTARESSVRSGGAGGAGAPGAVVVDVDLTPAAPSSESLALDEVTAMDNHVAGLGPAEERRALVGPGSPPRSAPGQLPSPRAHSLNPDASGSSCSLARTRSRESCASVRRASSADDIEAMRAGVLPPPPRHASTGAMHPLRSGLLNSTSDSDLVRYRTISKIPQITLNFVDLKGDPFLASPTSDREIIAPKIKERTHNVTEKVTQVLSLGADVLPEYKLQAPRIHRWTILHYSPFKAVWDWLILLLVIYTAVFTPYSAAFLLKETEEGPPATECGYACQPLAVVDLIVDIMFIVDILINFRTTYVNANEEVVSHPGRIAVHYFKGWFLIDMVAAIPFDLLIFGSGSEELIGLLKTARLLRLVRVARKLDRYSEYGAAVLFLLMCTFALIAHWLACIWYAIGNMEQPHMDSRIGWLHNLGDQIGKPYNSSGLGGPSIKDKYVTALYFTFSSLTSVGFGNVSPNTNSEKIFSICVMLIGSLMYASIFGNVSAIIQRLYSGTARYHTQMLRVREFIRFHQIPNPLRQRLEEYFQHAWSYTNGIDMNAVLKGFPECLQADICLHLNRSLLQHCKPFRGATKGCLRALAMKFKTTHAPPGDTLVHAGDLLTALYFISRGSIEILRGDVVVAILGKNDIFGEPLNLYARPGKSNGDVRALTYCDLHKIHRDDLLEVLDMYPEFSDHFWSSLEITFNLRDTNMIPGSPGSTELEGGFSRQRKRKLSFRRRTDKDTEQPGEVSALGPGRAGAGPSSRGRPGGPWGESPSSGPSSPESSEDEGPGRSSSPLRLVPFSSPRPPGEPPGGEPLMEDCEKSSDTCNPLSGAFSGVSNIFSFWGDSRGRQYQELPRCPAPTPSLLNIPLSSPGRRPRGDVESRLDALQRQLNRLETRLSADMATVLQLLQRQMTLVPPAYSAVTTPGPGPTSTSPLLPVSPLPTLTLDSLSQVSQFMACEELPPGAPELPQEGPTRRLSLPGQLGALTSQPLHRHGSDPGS
# method-notes: Automated patch clamp, hERG current block (consensus step-ramp protocol)
# cond: human, recombinant cells expressing hERG, hERG K+ current inhibition, Mean, site_platform s07_p5; 3.00E-07 mol/L
observed-property: inhibition at 3e-07 mol/L (%)
Please give a number only; it is taken to be in %.

Input: Could you tell me which inhibition at 3e-07 mol/L is on file for Cc1nccn1CC1CCc2c(c3ccccc3n2C)C1=O (stereo not shown) [ond, ondansetron] ?
Output: 17

---

# tested-target: hERG (Homo sapiens)
# method-notes: Automated patch clamp, hERG current block (consensus step-ramp protocol)
# cond: human, hERG K+ current inhibition, Mean, site_platform s14_p1; 1.00E-06 mol/L
observed-property: inhibition at 7 min, 1e-06 mol/L
Write the quantity with the unit trailing the number.

Input: Notebook entry, hERG (Homo sapiens) assay: inhibition at 7 min, 1e-06 mol/L of Cc1cccc(C)c1OCC(C)N (stereo not shown) = ?
Output: 10.8%

---

# tested-target: hERG (Homo sapiens)
# method-notes: Automated patch clamp, hERG current block (consensus step-ramp protocol)
# cond: human, hERG K+ current inhibition, Mean, site_platform s10_p3; 1.00E-04 mol/L
observed-property: inhibition at 4 min, 0.0001 mol/L (%)
Please give a number only; it is taken to be in %.

Input: Could you tell me which inhibition at 4 min, 0.0001 mol/L is on file for Cc1cccc(C)c1OCC(C)N (stereo not shown) ?
Output: 42

---

# tested-target: hERG (Homo sapiens)
# method-notes: Automated patch clamp, hERG current block (consensus step-ramp protocol)
# cond: human, recombinant cells expressing hERG, hERG K+ current inhibition, Mean, site_platform s13_p2; 1.00E-05 mol/L
observed-property: inhibition at 1e-05 mol/L (%)
Please give a number only; it is taken to be in %.

Input: Could you tell me which inhibition at 1e-05 mol/L is on file for Cc1nccn1CC1CCc2c(c3ccccc3n2C)C1=O (stereo not shown) [ond, ondansetron] ?
Output: 90

---

# tested-target: hERG (Homo sapiens)
# method-notes: Automated patch clamp, hERG current block (consensus step-ramp protocol)
# cond: human, hERG K+ current inhibition, Mean, site_platform s10_p3; 1.00E-08 mol/L
observed-property: inhibition at 4 min, 1e-08 mol/L (%)
Please give a number only; it is taken to be in %.

Input: Could you tell me which inhibition at 4 min, 1e-08 mol/L is on file for CC(C)COCC(CN(Cc1ccccc1)c1ccccc1)N1CCCC1 (stereo not shown) ?
Output: 1.5

---

# tested-target: hERG (Homo sapiens, UniProt Q12809)
# method-notes: Automated patch clamp, hERG current block (consensus step-ramp protocol)
# cond: human, recombinant cells expressing hERG, hERG K+ current inhibition, Mean, site_platform s12_p2; 3.00E-07 mol/L
observed-property: inhibition at 3e-07 mol/L (%)
Please give a number only; it is taken to be in %.

Input: Could you tell me which inhibition at 3e-07 mol/L is on file for Cc1nccn1CC1CCc2c(c3ccccc3n2C)C1=O (stereo not shown) ?
Output: 19.3

---

# tested-target: hERG (Homo sapiens, UniProt Q12809)
# method-notes: Automated patch clamp, hERG current block (consensus step-ramp protocol)
# cond: human, hERG K+ current inhibition, Mean, site_platform s11_p1; 1.00E-08 mol/L
observed-property: inhibition at 7 min, 1e-08 mol/L (%)
Please give a number only; it is taken to be in %.

Input: Could you tell me which inhibition at 7 min, 1e-08 mol/L is on file for CC(C)COCC(CN(Cc1ccccc1)c1ccccc1)N1CCCC1 (stereo not shown) [bep, bepridil] ?
Output: 12

---

# tested-target: hERG (Homo sapiens, UniProt Q12809)
# method-notes: Automated patch clamp, hERG current block (consensus step-ramp protocol)
# cond: log IC50, hERG K+ current inhibition, site_platform s07_p5
observed-property: pIC50
Note on units: pIC50 is unitless, being -log10 of a concentration expressed in mol/L.

Input: Notebook entry, hERG (Homo sapiens, UniProt Q12809) assay: pIC50 of Cc1cccc(C)c1OCC(C)N (stereo not shown) = ?
Output: 4.14

---

# tested-target: hERG (Homo sapiens)
# method-notes: in vitro
# cond: hERG K+ current inhibition, Mean
observed-property: inhibition at 4 min, 1e-09 mol/L (%)
Please give a number only; it is taken to be in %.

Input: Could you tell me which inhibition at 4 min, 1e-09 mol/L is on file for COc1cc(N)c(Cl)cc1C(=O)NC1CCN(CCCOc2ccc(F)cc2)CC1OC (stereo not drawn) [cis, cisapride] ?
Output: 7.2

---

# tested-target: UniProt:Q12809
# method-notes: Automated patch clamp, hERG current block (consensus step-ramp protocol)
# cond: log IC50, hERG K+ current inhibition, site_platform s10_p3
observed-property: IC50 (µM)
Please give a number only; it is taken to be in µM.

Input: Could you tell me which IC50 is on file for Cc1cccc(C)c1OCC(C)N (stereo not shown) ?
Output: 126

---

# tested-target: hERG (Homo sapiens, UniProt Q12809)
# method-notes: in vitro
# cond: hERG K+ current inhibition, Mean
observed-property: inhibition at 4 min, 3e-07 mol/L (%)
Please give a number only; it is taken to be in %.

Input: Could you tell me which inhibition at 4 min, 3e-07 mol/L is on file for COc1cc(N)c(Cl)cc1C(=O)NC1CCN(CCCOc2ccc(F)cc2)CC1OC (stereo not drawn) [cis, cisapride] ?
Output: 68.5

---

# tested-target: UniProtKB Q12809
# method-notes: Automated patch clamp, hERG current block (consensus step-ramp protocol)
# cond: human, recombinant cells expressing hERG, hERG K+ current inhibition, Mean, site_platform s14_p1; 1.00E-05 mol/L
observed-property: inhibition at 7 min, 1e-05 mol/L (%)
Please give a number only; it is taken to be in %.

Input: Could you tell me which inhibition at 7 min, 1e-05 mol/L is on file for Cc1nccn1CC1CCc2c(c3ccccc3n2C)C1=O (stereo not shown) ?
Output: 89.4
